- TARGET OF ASSAY: GST-BAI-1 Associated Protein PDZ domain 5 (Homo sapiens (Human)), Q96QZ7
- Sequence (Q96QZ7 988-1099): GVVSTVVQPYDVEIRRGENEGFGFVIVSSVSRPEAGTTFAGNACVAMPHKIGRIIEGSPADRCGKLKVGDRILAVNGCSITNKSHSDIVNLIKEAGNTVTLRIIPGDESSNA
- PROTOCOL DESCRIPTION: G' assay; further: key of the grades not given here
MEASURED QUANTITY: Classification (A450 class)
Give bare numbers, in A450 class.

Some binders with recorded Classification:
> print(dat)
                                     binder  measured.quantity  measured.value
1  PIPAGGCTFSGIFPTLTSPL (modifications not checked) [KIA 1481]     Classification               3
2  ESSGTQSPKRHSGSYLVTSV (modifications not checked) [APC-adenomatous polyposis coli protein]     Classification               1
3  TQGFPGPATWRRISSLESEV (modifications not checked) [NMDA Glutamate Receptor 2C (cysteine-free)]     Classification               4
4  EALQPEPGRKRIPLTRTTTF (modifications not checked) [somatostatin receptor 4]     Classification               1
5  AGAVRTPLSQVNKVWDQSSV (modifications not checked) [CITRON protein]     Classification               2

List Classification for every entry below, keeping the order given.
1. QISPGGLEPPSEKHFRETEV (modifications not checked) [TAX]
2. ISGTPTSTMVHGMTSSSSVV (modifications not checked) [Clasp-2]
3. KKGTYLTDETHREVKFTSL (modifications not checked) [CD46]
4. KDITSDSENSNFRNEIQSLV (modifications not checked) [CD95]

1. 5
2. 1
3. 1
4. 3
